These data points were gathered from patent US20120115941A1.

- target-desc: porcine pancreatic α-amylase (Sus scrofa, UniProt P00690)
- Sequence (P00690 16-511): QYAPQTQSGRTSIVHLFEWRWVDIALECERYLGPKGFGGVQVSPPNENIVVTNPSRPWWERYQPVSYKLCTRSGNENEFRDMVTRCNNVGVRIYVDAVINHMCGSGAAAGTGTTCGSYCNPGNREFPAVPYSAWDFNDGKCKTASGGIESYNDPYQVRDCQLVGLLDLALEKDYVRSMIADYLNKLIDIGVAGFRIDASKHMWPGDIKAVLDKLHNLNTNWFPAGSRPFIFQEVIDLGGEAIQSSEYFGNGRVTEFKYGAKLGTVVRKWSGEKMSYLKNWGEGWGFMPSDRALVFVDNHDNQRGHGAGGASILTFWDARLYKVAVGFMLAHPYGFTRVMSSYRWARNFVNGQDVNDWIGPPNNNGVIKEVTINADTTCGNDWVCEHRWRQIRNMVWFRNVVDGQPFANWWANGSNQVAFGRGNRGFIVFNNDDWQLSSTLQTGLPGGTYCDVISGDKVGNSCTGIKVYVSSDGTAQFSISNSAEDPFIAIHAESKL
- method-summary: Porcine α-amylase inhibition assay (EnzChek Ultra Amylase Assay kit)
- Assay type: biochemical
- run-conditions: porcine α-amylase; read-out: Amylase (porcine) IC50
readout-label: pIC50
Please report pIC50 as the negative decimal logarithm of the molar concentration, giving only the number.

Entry under test: COc1cc(C(O)C(COC(=O)C=Cc2ccc(O)cc2)Oc2c(OC)cc(-c3cc(=O)c4c(O)cc(O)cc4o3)cc2OC)ccc1O (centres unmarked) [Compound 8] . Its pIC50 was 6.05

Entry under test: O=c1cc(-c2ccc(O)c(O)c2)oc2cc(O)cc(O)c12 [Compound 19, Luteolin, reference compound] . Its pIC50 was 4.00

Entry under test: COc1cc(C(O)C(COC(=O)C=Cc2ccc(O)cc2)Oc2c(OC)cc(-c3cc(=O)c4c(O)cc(O)cc4o3)cc2OC)ccc1O (centres unmarked) [Compound 7] . Its pIC50 was 5.70

Entry under test: COc1cc(C(OC)C(CO)Oc2c(OC)cc(-c3cc(=O)c4c(O)cc(O)cc4o3)cc2OC)ccc1O (centres unmarked) [Compound 5] . Its pIC50 was 4.50

Entry under test: COc1cc(C(OC)C(CO)Oc2c(OC)cc(-c3cc(=O)c4c(O)cc(O)cc4o3)cc2OC)ccc1O (centres unmarked) [Compound 6] . Its pIC50 was 4.58
